pIC50: −log10 of the molar value.
For reference, pIC50 measured on Cytochrome P450 2C8 (Homo sapiens):
measured metric: pIC50

>>> obs_value("CC(C)(O)C(=O)N[C@@H]1CC[C@@]2(S(=O)(=O)c3ccc(F)cc3)c3ccc(C(F)(C(F)(F)F)C(F)(F)F)nc3CC[C@@H]12")
5.08
>>> obs_value("O=C(C1CCS(=O)(=O)CC1)N1CC[C@@]2(S(=O)(=O)c3ccc(F)cc3)c3ccc(C(F)(C(F)(F)F)C(F)(F)F)cc3CC[C@@H]12")
5.03
>>> obs_value("C[C@@](O)(CS(C)(=O)=O)C(=O)N[C@@H]1CC[C@@]2(S(=O)(=O)c3ccc(F)cc3)c3ccc(C(F)(C(F)(F)F)C(F)(F)F)cc3CC[C@@H]12")
5.30
>>> obs_value("O=C(N[C@@H]1CC[C@@]2(S(=O)(=O)c3ccc(F)cc3)c3ccc(C(F)(C(F)(F)F)C(F)(F)F)nc3CC[C@@H]12)C1CCS(=O)(=O)CC1")
4.80
>>> obs_value("CC(C)(O)CC(=O)N[C@@H]1CC[C@@]2(S(=O)(=O)c3ccc(F)cc3)c3ccc(C(F)(C(F)(F)F)C(F)(F)F)cc3CC[C@@H]12")
4.92

====

Target: Oxysterols receptor LXR-alpha (Homo sapiens)
Sequence (Q13133 whole entry): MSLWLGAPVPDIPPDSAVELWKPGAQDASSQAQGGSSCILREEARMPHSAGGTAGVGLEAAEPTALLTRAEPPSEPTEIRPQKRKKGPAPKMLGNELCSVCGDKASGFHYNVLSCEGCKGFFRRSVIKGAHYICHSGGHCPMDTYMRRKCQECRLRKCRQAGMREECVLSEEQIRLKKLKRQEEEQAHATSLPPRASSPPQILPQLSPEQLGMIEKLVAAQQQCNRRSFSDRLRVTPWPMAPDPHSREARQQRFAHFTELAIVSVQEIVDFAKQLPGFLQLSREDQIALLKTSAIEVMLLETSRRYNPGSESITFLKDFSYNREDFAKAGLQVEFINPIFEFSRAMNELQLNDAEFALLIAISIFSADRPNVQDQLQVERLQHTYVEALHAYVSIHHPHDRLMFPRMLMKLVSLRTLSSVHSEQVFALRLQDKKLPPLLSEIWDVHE
Assay: Inhibition of LXRalpha (unknown origin)
pEC50: −log10 of the molar value.
measured metric: pEC50

>>> obs_value("C[C@@](O)(CS(C)(=O)=O)C(=O)N[C@@H]1CC[C@@]2(S(=O)(=O)c3ccc(F)cc3)c3ccc(C(F)(C(F)(F)F)C(F)(F)F)nc3CC[C@@H]12")
"< 5.00"

====

Test: Cmax in dog at 2 mg/kg, po
Assay type: ADME, organism-based, Canis lupus familiaris
Parameters: route oral, dose 2 mg/kg
Conditions: in vivo
measured metric: Cmax (nM)

>>> obs_value("C[C@@](O)(CS(C)(=O)=O)C(=O)N[C@@H]1CC[C@@]2(S(=O)(=O)c3ccc(F)cc3)c3ccc(C(F)(C(F)(F)F)C(F)(F)F)nc3CC[C@@H]12")
1700

====

Test: AUC in cynomolgus monkey at 2 mg/kg, po
Format: ADME, organism-based, Macaca fascicularis
Set-up: dose 2 mg/kg
Details: in vivo
measured metric: AUC (µM·h)

>>> obs_value("C[C@@](O)(CS(C)(=O)=O)C(=O)N[C@@H]1CC[C@@]2(S(=O)(=O)c3ccc(F)cc3)c3ccc(C(F)(C(F)(F)F)C(F)(F)F)nc3CC[C@@H]12")
13.2

====

Assay: Cmax in Balb/c mouse at 4 mg/kg, po
Type: ADME, organism-based
Set-up: route oral, dose 4 mg/kg
Settings: in vivo
measured metric: Cmax (nM)

>>> obs_value("C[C@@](O)(CS(C)(=O)=O)C(=O)N[C@@H]1CC[C@@]2(S(=O)(=O)c3ccc(F)cc3)c3ccc(C(F)(C(F)(F)F)C(F)(F)F)nc3CC[C@@H]12")
2800

====

Assay: AUC in dog at 2 mg/kg, po
Format: ADME, organism-based, Canis lupus familiaris
Parameters: dose 2 mg/kg
Conditions: in vivo
measured metric: AUC (µM·h)

>>> obs_value("C[C@@](O)(CS(C)(=O)=O)C(=O)N[C@@H]1CC[C@@]2(S(=O)(=O)c3ccc(F)cc3)c3ccc(C(F)(C(F)(F)F)C(F)(F)F)nc3CC[C@@H]12")
163
